Where do these numbers come from? They come from patent US11541107B2.

Tested on: HLA-A*24
assay-explanation: MHC binding assay, UV-ligand exchange with beta2m ELISA, HLA-A*24
Parameters: species or system human
measurement-context: binding to HLA-A*24 ranged by peptide exchange yield (UV-ligand exchange, beta2m ELISA)
measured-attribute: Peptide exchange

135 (VYEAMVPLF; listed as Homo sapiens) [compound 135]; ++++ (>=75% = ++++)
184 (IYSVGAFENF; listed as Homo sapiens) [compound 184]; ++++ (>=75% = ++++)
358 (YYSEVPVKL; listed as Homo sapiens) [compound 358]; +++ (50%-75% = +++)
133 (KYLEDMKTYF; listed as Homo sapiens) [compound 133]; +++ (50%-75% = +++)
